Source: patent US9556165B2

- Tested on: A. baumannii ATCC15308
- EXPERIMENTAL_PROTOCOL: MIC determination, broth microdilution (CLSI)
- Assay type: cell-based
- STUDY_CONDITIONS: Acinetobacter baumannii, ATCC15308, strain 9
Assign MIC to each entry below.
Report the value in mg/L with no unit label.

Prompt: Answer with reported MIC of C[C@H]1[C@H](NC(=O)/C(=N\OCCOc2nnc(C(=N)N)s2)c2csc(N)n2)C(=O)N1S(=O)(=O)O
Completion: 8

Prompt: State its MIC: C[C@H]1[C@H](NC(=O)/C(=N\OCCOc2cnc(C(=N)N)cn2)c2csc(N)n2)C(=O)N1S(=O)(=O)O
Completion: 1

Prompt: Look up and report measured MIC for this entry: C[C@H]1[C@H](NC(=O)/C(=N\OCCOc2ccc(C(=N)N)cc2N)c2csc(N)n2)C(=O)N1S(=O)(=O)O
Completion: 2

Prompt: Indicate the recorded MIC value for this molecule: C[C@H]1[C@H](NC(=O)/C(=N\OCCOc2ccc(C(=N)NO)cc2)c2csc(N)n2)C(=O)N1S(=O)(=O)O
Completion: 8

Prompt: Consider the molecule CC1(C)[C@H](NC(=O)/C(=N\OC(COc2ccc(C(=N)N)c(O)c2)C(=O)O)c2csc(N)n2)C(=O)N1OS(=O)(=O)O (mixture of isomers) [Example 34A] and give its recorded MIC.
Completion: 32

Prompt: Identify measured MIC corresponding to C[C@H]1[C@H](NC(=O)/C(=N\OCCOc2ccc(C(=N)N)cc2)c2csc(N)n2)C(=O)N1OCS(=O)(=O)O
Completion: 4

====

- Tested on: H. influenzae ATCC 49247
- EXPERIMENTAL_PROTOCOL: MIC determination, broth microdilution (CLSI)
- Format: cell-based
- STUDY_CONDITIONS: Haemophilus influenzae, ATCC49247, strain 12; broth microdilution; read-out: MIC strain 12 (H. influenzae ATCC 49247)
Kindly supply the reported MIC values for the records listed here.
Write the quantity with the unit trailing the number.

Prompt: Name the recorded MIC of the item CC1(C)[C@H](NC(=O)/C(=N\OCCOc2ccc(C(=N)N)cc2)c2csc(N)n2)C(=O)N1OCS(=O)(=O)O [Example 90] in your answer.
Completion: 0.5 µg/mL

Prompt: Fill in MIC for record N=C(N)c1ccc(OCCO/N=C(\C(=O)N[C@@H]2C(=O)N(S(=O)(=O)O)[C@@H]2C(N)=O)c2csc(N)n2)cc1 [Example 66]
Completion: 2 µg/mL

Prompt: Identify measured MIC associated with CC1(C)[C@H](NC(=O)/C(=N\OCCOc2ccc(C(=N)NCc3ccccn3)cc2)c2csc(N)n2)C(=O)N1OS(=O)(=O)O [Example 76]
Completion: 0.25 µg/mL

====

- System: Bacteria
- EXPERIMENTAL_PROTOCOL: MIC determination in combination with β-lactamase inhibitors (constant 4 μg/mL)
- Type: cell-based
- STUDY_CONDITIONS: strain 19; E. coli J62-TEM-3 + 4 μg/mL clavulanic acid
MIC strain 19 (E. coli J62-TEM-3 + 4 μg/mL clavulanic acid) strictly less than 0.5 mg/L = Y. Otherwise N.

Prompt: Does this compound meet the criterion MIC strain 19 (E. coli J62-TEM-3 + 4 μg/mL clavulanic acid) < 0.5 mg/L? CC1(C)[C@H](NC(=O)/C(=N\OCCCOc2ccc(C(=N)N)cc2)c2csc(N)n2)C(=O)N1OS(=O)(=O)O [Example 58]
Completion: N

Prompt: Field: below-cutoff. Rule: recorded MIC strain 19 (E. coli J62-TEM-3 + 4 μg/mL clavulanic acid) strictly less than 0.5 mg/L. Subject: CC1(C)[C@H](NC(=O)/C(=N\OC(CCO)COc2ccc(C(=N)N)cc2)c2csc(N)n2)C(=O)N1OS(=O)(=O)O (single isomer, unassigned) [Example 81B]
Completion: N

Prompt: Quick check: MIC strain 19 (E. coli J62-TEM-3 + 4 μg/mL clavulanic acid) of CC1(C)[C@H](NC(=O)/C(=N\OC(COc2ccc(C(=N)NCCN)cc2)C(=O)O)c2csc(N)n2)C(=O)N1OS(=O)(=O)O (mixture of isomers) [Example 44B] under 0.5 mg/L?
Completion: N

Prompt: Decide: MIC strain 19 (E. coli J62-TEM-3 + 4 μg/mL clavulanic acid) of C[C@H]1[C@H](NC(=O)/C(=N\OCCOCc2cc(C(=N)N)cs2)c2csc(N)n2)C(=O)N1S(=O)(=O)O [Example 56] strictly below 0.5 mg/L?
Completion: N

Prompt: Check if MIC strain 19 (E. coli J62-TEM-3 + 4 μg/mL clavulanic acid) falls below 0.5 mg/L for CC1(C)[C@H](NC(=O)/C(=N\O[C@@H](COc2ccc(C(=N)NC3CNCC3N)cc2)C(=O)O)c2csc(N)n2)C(=O)N1OS(=O)(=O)O (stereo partly shown) [Example 106] .
Completion: Y

Prompt: Dear reviewer, please state whether CC1(C)[C@H](NC(=O)/C(=N\OCCOc2ccc(C(=N)N[C@H](CN)CO)cc2)c2csc(N)n2)C(=O)N1OS(=O)(=O)O [Example 85] has MIC strain 19 (E. coli J62-TEM-3 + 4 μg/mL clavulanic acid) strictly beneath 0.5 mg/L.
Completion: Y

Prompt: Determine whether this compound shows MIC strain 19 (E. coli J62-TEM-3 + 4 μg/mL clavulanic acid) lower than 0.5 mg/L (ties excluded): CC1(C)[C@H](NC(=O)/C(=N\OC(CO)COc2ccc(C(=N)N)cc2)c2csc(N)n2)C(=O)N1OS(=O)(=O)O (mixture of isomers) [Example 45B]
Completion: N

Prompt: Decide: MIC strain 19 (E. coli J62-TEM-3 + 4 μg/mL clavulanic acid) of CC1(C)[C@H](NC(=O)/C(=N\OCCOc2ccc(C(=N)N)cc2)c2csc(N)n2)C(=O)N1OS(=O)(=O)O [Example 41] strictly below 0.5 mg/L?
Completion: Y

Prompt: Below 0.5 mg/L on MIC strain 19 (E. coli J62-TEM-3 + 4 μg/mL clavulanic acid)? Entry C[C@H]1[C@H](NC(=O)/C(=N\OCCOc2cc(C(=N)N)n(C)n2)c2csc(N)n2)C(=O)N1S(=O)(=O)O [Example 72]
Completion: N

Prompt: Say whether its MIC strain 19 (E. coli J62-TEM-3 + 4 μg/mL clavulanic acid) is strictly beneath 0.5 mg/L. Entry: CC1(C)[C@H](NC(=O)/C(=N\OCCOc2ccc(C(=N)NCCNC(=N)N)cc2)c2csc(N)n2)C(=O)N1OS(=O)(=O)O [Example 78]
Completion: Y

Prompt: Report whether reported MIC strain 19 (E. coli J62-TEM-3 + 4 μg/mL clavulanic acid) is lower than 0.5 mg/L (strictly) for CC1(C)[C@H](NC(=O)/C(=N\OCc2ccc(C(=N)N)cc2)c2csc(N)n2)C(=O)N1OS(=O)(=O)O [Example 57]
Completion: N

Prompt: State whether 0.5 mg/L exceeds MIC strain 19 (E. coli J62-TEM-3 + 4 μg/mL clavulanic acid) recorded for CC1(C)[C@H](NC(=O)/C(=N\OCCOc2ccc(C3=NCC(N)CN3)cc2)c2csc(N)n2)C(=O)N1OS(=O)(=O)O (stereo partly shown) [Example 86] .
Completion: Y

Prompt: # check: MIC strain 19 (E. coli J62-TEM-3 + 4 μg/mL clavulanic acid) < 0.5 mg/L for CC1(C)[C@H](NC(=O)/C(=N\O[C@@H](COc2ccc(C(=N)NCC3CCCCN3)cc2)C(=O)O)c2csc(N)n2)C(=O)N1OS(=O)(=O)O (stereo partly shown) [Example 99]
Completion: Y
